Here the recorded IC50 is given for each entry.
Target: KRAS G12D (Homo sapiens, UniProt P01116, G12D)
Construct: GST-tagged KRAS WT or mutant protein (amino acids 2-169)
Sequence (P01116 2-169 isoform P01116-2 G12D): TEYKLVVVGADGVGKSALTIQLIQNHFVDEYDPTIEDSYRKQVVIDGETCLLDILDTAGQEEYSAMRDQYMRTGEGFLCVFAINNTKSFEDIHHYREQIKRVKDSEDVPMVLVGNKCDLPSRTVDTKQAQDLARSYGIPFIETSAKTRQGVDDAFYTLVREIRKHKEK
Test: KRAS Nucleotide Exchange Assay (SOS1-mediated), G12D
Conditions: HTRF, 20 nM KRAS, 12.5 nM SOS1, 60 minutes preincubation, approximately 25 minutes reaction

Compound	IC50, nM
CCc1c(F)ccc2cc(O)cc(-c3nc4c5c(nc(OC[C@@]67CCCN6C[C@H](F)C7)nc5c3F)N(C(C)c3cccnc3N)C[C@H](C)O4)c12 (stereo partly drawn) [Example 3]	8.69
CCc1c(F)ccc2cc(O)cc(-c3nc4c5c(nc(OC[C@@]67CCCN6C[C@H](F)C7)nc5c3F)N(CC3(N(C)C)CCC3)CCO4)c12 [Example 1]	1.26
CCc1c(F)ccc2cc(O)cc(-c3nc4c5c(nc(OC[C@@]67CCCN6C[C@H](F)C7)nc5c3F)N(C(C)c3cccnc3N)CCO4)c12 (mixture of isomers) [Example 14]	3.79
